Catalogue of inhibition at 1 µM readings, one per entry.
- measured_target: UniProt:P24008
- Sequence (P24008 1-259): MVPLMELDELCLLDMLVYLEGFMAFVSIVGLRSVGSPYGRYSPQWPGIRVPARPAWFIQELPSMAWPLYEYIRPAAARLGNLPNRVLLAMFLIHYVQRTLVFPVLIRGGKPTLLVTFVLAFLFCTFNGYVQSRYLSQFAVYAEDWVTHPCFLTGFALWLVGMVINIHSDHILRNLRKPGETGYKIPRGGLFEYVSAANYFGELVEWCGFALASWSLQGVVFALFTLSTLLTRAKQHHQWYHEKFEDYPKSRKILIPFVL
- test_name: Enzyme inhibition test, 5α-reductase type 1 (pH 6.6)
- Assay type: biochemical
- assay_conditions: 1 μM compound, pH 6.6, rat liver enzyme preparation; read-out: Type 1 (pH 6.6) Inh% (1 μM)
The response must be a number in % with no trailing unit.

Consider C[C@]12CC[C@H]3[C@@H](CCC4=CC(=O)C(=CO)C[C@@]43C)[C@@H]1CC[C@@H]2C(=O)N1CCCCC1 [Compound 7b] . Its measured inhibition at 1 µM is 52.2

Consider C[C@]12CC[C@H]3[C@@H](CCC4=CC(=O)C(=CO)C[C@@]43C)[C@@H]1CC[C@@H]2C(=O)NC1CC1 [Compound 7e] . Its measured inhibition at 1 µM is 54.7

Consider C=C1C[C@@]2(C)C(=CC1=O)CC[C@H]1[C@@H]3CC[C@H](C(=O)NC4CC4)[C@@]3(C)CC[C@@H]12 [Compound 8e] . Its measured inhibition at 1 µM is 34.1

Consider C=C1C[C@@]2(C)C(=CC1=O)CC[C@H]1[C@@H]3CC[C@H](C(=O)N4CCCCC4)[C@@]3(C)CC[C@@H]12 [Compound 8b] . Its measured inhibition at 1 µM is 35.8

Consider C[C@]12Cc3c[nH]nc3C=C1CCC1C2CC[C@@]2(C)C1CC[C@@H]2C(=O)N1CCCCC1 (stereo partly shown) [Compound 9b] . Its measured inhibition at 1 µM is 59.2

Consider C=C1C[C@@]2(C)C(=CC1=O)CCC1C2CC[C@@]2(C)C1CC[C@@H]2C(=O)NCCc1ccc(OC)c(OC)c1 (stereo partly shown) [Compound 8d] . Its measured inhibition at 1 µM is 24.8

Consider CC(C)CNC(=O)[C@H]1CCC2C3CCC4=CC(=O)/C(=C\O)C[C@]4(C)C3CC[C@@]21C (stereo partly shown) [Compound 7a] . Its measured inhibition at 1 µM is 25

###

Catalogue of inhibition at 1 µM readings, one per entry.
- measured_target: 5α-reductase type 1 isozyme (Rattus norvegicus)
- Sequence (P24008 1-259): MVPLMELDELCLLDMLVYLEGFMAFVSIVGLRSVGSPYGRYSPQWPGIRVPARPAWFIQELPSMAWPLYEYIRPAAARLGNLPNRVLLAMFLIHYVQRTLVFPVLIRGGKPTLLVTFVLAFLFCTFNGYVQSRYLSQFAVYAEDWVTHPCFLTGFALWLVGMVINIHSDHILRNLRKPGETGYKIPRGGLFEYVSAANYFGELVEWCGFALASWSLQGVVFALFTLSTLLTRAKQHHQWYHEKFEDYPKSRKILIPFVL
- test_name: Enzyme inhibition test, 5α-reductase type 1 (pH 6.6)
- Type: biochemical
- assay_conditions: 1 μM compound, pH 6.6, rat liver enzyme preparation; read-out: Type 1 (pH 6.6) Inh% (1 μM)
The response must be a number in % with no trailing unit.

Consider CC(C)CNC(=O)[C@H]1CCC2C3CCC4=Cc5n[nH]cc5C[C@]4(C)C3CC[C@@]21C (stereo partly drawn) [Compound 9a] . Its measured inhibition at 1 µM is 53.1

New cases:
Consider CC(C)(C)NC(=O)[C@H]1CC[C@H]2[C@@H]3CC[C@H]4NC(=O)C=C[C@]4(C)[C@H]3CC[C@]12C [Finasteride, finasteride, reference compound] . Its measured inhibition at 1 µM is 73.7

Consider C=C1C[C@@]2(C)C(=CC1=O)CCC1C2CC[C@@]2(C)C1CC[C@@H]2C(=O)NCC(C)C (stereo partly drawn) [Compound 8a] . Its measured inhibition at 1 µM is 31.1

Consider CCN(CC)C(=O)[C@H]1CCC2C3CCC4=Cc5n[nH]cc5C[C@]4(C)C3CC[C@@]21C (stereo partly drawn) [Compound 9c] . Its measured inhibition at 1 µM is 68

Consider C=C1C[C@@]2(C)C(=CC1=O)CCC1C2CC[C@@]2(C)C1CC[C@@H]2C(=O)N(CC)CC (stereo partly drawn) [Compound 8c] . Its measured inhibition at 1 µM is 25.8

Consider CCN(CC)C(=O)[C@H]1CCC2C3CCC4=CC(=O)/C(=C\O)C[C@]4(C)C3CC[C@@]21C (stereo partly drawn) [Compound 7c] . Its measured inhibition at 1 µM is 27.9

###

- measured_target: 5α-reductase type 2 isozyme (Rattus norvegicus, UniProt P31214)
- Sequence (P31214 1-254): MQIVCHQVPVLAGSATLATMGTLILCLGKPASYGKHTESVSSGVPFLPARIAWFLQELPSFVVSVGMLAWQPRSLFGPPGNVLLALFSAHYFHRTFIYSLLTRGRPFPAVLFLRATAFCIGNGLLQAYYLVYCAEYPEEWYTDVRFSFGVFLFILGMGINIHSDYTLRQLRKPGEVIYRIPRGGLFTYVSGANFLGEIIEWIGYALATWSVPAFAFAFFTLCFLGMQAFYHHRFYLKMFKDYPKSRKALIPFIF
- test_name: Enzyme inhibition test, 5α-reductase type 2 (pH 5.5)
- Format: biochemical
- assay_conditions: pH 5.5, read-out: Type 2 (pH 5.5) Inh% (1μM)
measurement_type: inhibition at 1 µM (%)
The response must be a number in % with no trailing unit.

Guide cases for inhibition at 1 µM, answers given:
Consider CC(C)(C)NC(=O)[C@H]1CC[C@H]2[C@@H]3CC[C@H]4NC(=O)C=C[C@]4(C)[C@H]3CC[C@]12C [Finasteride, finasteride, reference compound] . Its measured inhibition at 1 µM is 70

Consider COc1ccc(CCNC(=O)[C@H]2CCC3C4CCC5=Cc6n[nH]cc6C[C@]5(C)C4CC[C@@]32C)cc1OC (stereo partly shown) [Compound 9d] . Its measured inhibition at 1 µM is 71.9

Consider C[C@]12Cc3c[nH]nc3C=C1CCC1C2CC[C@@]2(C)C1CC[C@@H]2C(=O)NC1CC1 (stereo partly shown) [Compound 9e] . Its measured inhibition at 1 µM is 79.4

Could you now look at the following compound, please?
Consider COc1ccc(CCNC(=O)[C@H]2CCC3C4CCC5=CC(=O)/C(=C\O)C[C@]5(C)C4CC[C@@]32C)cc1OC (stereo partly shown) [Compound 7d] . Its measured inhibition at 1 µM is 69

###

- measured_target: 5α-reductase type 1 isozyme (Rattus norvegicus, UniProt P24008)
- test_name: Enzyme inhibition test, 5α-reductase type 1 (pH 6.6)
- Format: biochemical
Catalogue of IC50 readings, one per entry.
The response must be a number in nM with no trailing unit.

Guide cases for IC50, answers given:
Consider COc1ccc(CCNC(=O)[C@H]2CCC3C4CCC5=CC(=O)/C(=C\O)C[C@]5(C)C4CC[C@@]32C)cc1OC (stereo partly drawn) . Its measured IC50 is 580

Consider C[C@]12Cc3c[nH]nc3C=C1CCC1C2CC[C@@]2(C)C1CC[C@@H]2C(=O)NC1CC1 (stereo partly drawn) . Its measured IC50 is 230

Could you now look at the following compound, please?
Consider COc1ccc(CCNC(=O)[C@H]2CCC3C4CCC5=Cc6n[nH]cc6C[C@]5(C)C4CC[C@@]32C)cc1OC (stereo partly drawn) . Its measured IC50 is 90

###

- Tested on: 22RV1 cells
- test_name: MTT anti-proliferation assay, T-stimulated 22RV1
- Type: cell-based, Human
- assay_conditions: Homo sapiens, 22Rv1, 48 h, read-out: IC50 anti-proliferative activity against 22RV1, T-stimulated group
measurement_type: IC50 (µM)
The response must be a number in µM with no trailing unit.

Consider COc1ccc(CCNC(=O)[C@H]2CCC3C4CCC5=Cc6n[nH]cc6C[C@]5(C)C4CC[C@@]32C)cc1OC (stereo partly shown) . Its measured IC50 is 8.85

###

Catalogue of inhibition at 1 µM readings, one per entry.
- measured_target: 5α-reductase type 2 isozyme (Rattus norvegicus, UniProt P31214)
- test_name: Enzyme inhibition test, 5α-reductase type 2 (pH 5.5)
- Format: biochemical
- assay_conditions: 1 μM compound, pH 5.5, rat liver enzyme preparation; read-out: Type 2 (pH 5.5) Inh% (1μM)
Please provide the amount together with its unit, number first.

Guide cases for inhibition at 1 µM, answers given:
Consider C=C1C[C@@]2(C)C(=CC1=O)CCC1C2CC[C@@]2(C)C1CC[C@@H]2C(=O)N(CC)CC (some centres unmarked) [Compound 8c] . Its measured inhibition at 1 µM is 18.3%

Consider CCN(CC)C(=O)[C@H]1CCC2C3CCC4=Cc5n[nH]cc5C[C@]4(C)C3CC[C@@]21C (some centres unmarked) [Compound 9c] . Its measured inhibition at 1 µM is 63.6%

Consider C[C@]12CC[C@H]3[C@@H](CCC4=CC(=O)C(=CO)C[C@@]43C)[C@@H]1CC[C@@H]2C(=O)NC1CC1 [Compound 7e] . Its measured inhibition at 1 µM is 45.8%

Consider C=C1C[C@@]2(C)C(=CC1=O)CC[C@H]1[C@@H]3CC[C@H](C(=O)NC4CC4)[C@@]3(C)CC[C@@H]12 [Compound 8e] . Its measured inhibition at 1 µM is 20.9%

New cases:
Consider C=C1C[C@@]2(C)C(=CC1=O)CCC1C2CC[C@@]2(C)C1CC[C@@H]2C(=O)NCC(C)C (some centres unmarked) [Compound 8a] . Its measured inhibition at 1 µM is 19.9%

Consider CC(C)CNC(=O)[C@H]1CCC2C3CCC4=CC(=O)/C(=C\O)C[C@]4(C)C3CC[C@@]21C (some centres unmarked) [Compound 7a] . Its measured inhibition at 1 µM is 24.2%

Consider CCN(CC)C(=O)[C@H]1CCC2C3CCC4=CC(=O)/C(=C\O)C[C@]4(C)C3CC[C@@]21C (some centres unmarked) [Compound 7c] . Its measured inhibition at 1 µM is 24.5%

Consider C=C1C[C@@]2(C)C(=CC1=O)CCC1C2CC[C@@]2(C)C1CC[C@@H]2C(=O)NCCc1ccc(OC)c(OC)c1 (some centres unmarked) [Compound 8d] . Its measured inhibition at 1 µM is 26.1%
